Please go through the items and note down their T/C.
# Tested on: L1210 leukemia ip in BDF1 mice, survival T/C
# run description: NCI In Vivo Anticancer Drug Screen. Data for tumor model L1210 Leukemia (intraperitoneal) in B6D2F1 (BDF1) mice
# condition set: endpoint: mean survival time; dose: 100.0 mg/kg/injection; schedule: Q04DX003 (ip); vehicle: Klucel (hydroxypropylcellulose) (HPC); higher = longer survival
Inconclusive results and toxic doses are left out.

Ask | Data request, read-out T/C, for `c1ccc(-c2cnoc2-c2ccccc2)cc1`
Reply | 111 % of control

Ask | Try `COC(=O)c1cc(=O)[nH]c2c1c(=O)n(C)c(=O)n2C` next.
Reply | 95 % of control

Ask | Try `Nc1ccc2c(c1)-n1cccc1C2=O` next.
Reply | 104 % of control

Ask | Try `Cc1ccc(S(=O)(=O)NS(=O)(=O)c2ccc(C)cc2)cc1` next.
Reply | 100 % of control

Ask | Try O=C1CC(c2ccc(O)cc2)CC(=O)C1C(C1CC=CCC1)N(CCCl)CCCl (stereo unspecified) next.
Reply | 103 % of control

Ask | Try `O=C(/C=C/c1ccccc1O)c1ccccc1` next.
Reply | 113 % of control

Please report T/C for every entry that follows.
1. CCCCCCCCCCCCNC(=O)Nc1ccc(CC)cc1
2. COC(=O)c1ccc(C(=O)O)[n+]([O-])c1

Reply |
1. 97 % of control
2. 97 % of control

Please report T/C for every entry that follows.
1. O=C(O)/C=C/c1cc2c(cc1[N+](=O)[O-])OCO2
2. O=C1OC2C3c4ccccc4C(c4c3cc(F)c3ccccc43)C2O1 (stereo unspecified)
3. CC(=O)Nc1cc([N+](=O)[O-])ccc1CC(O)c1ccccc1Cl (stereo unspecified)

Reply |
1: 86 % of control; 2: 100 % of control; 3: 97 % of control

====

# System: L1210 leukemia ip in BDF1 mice, survival T/C
# run description: NCI In Vivo Anticancer Drug Screen. Data for tumor model L1210 Leukemia (intraperitoneal) in B6D2F1 (BDF1) mice
# condition set: endpoint: mean survival time; dose: 100.0 mg/kg/injection; schedule: Q01DX001 (ip); vehicle: Klucel (hydroxypropylcellulose) (HPC); higher = longer survival
Toxic doses and inconclusive results are not listed.
recorded endpoint: T/C

// solved cases for T/C follow
Ask | Data request, read-out T/C, for Cc1cccc2c1NC(c1ccccc1)C(C)S2(=O)=O (configuration not stated)
Reply | 96 % of control

Ask | Try `Nc1c(OCCc2ccccc2)cccc1C(=O)O` next.
Reply | 97 % of control

Ask | Try `C/C(C(=O)O)=C1\N=C(N)NC1=O` next.
Reply | 98 % of control

Ask | Try `CC(C)(C)OC(=O)C(=[N+]=[N-])C(=O)OC(C)(C)C` next.
Reply | 97 % of control

Ask | Try `CC/C(=C(/Cl)c1ccccc1)c1ccccc1` next.
Reply | 98 % of control

Please report T/C for every entry that follows.
1. O=C1c2ccccc2-c2nc3cc4ccccc4cc3nc21
2. ClCc1cc(OCc2ccccc2)ccc1OCc1ccccc1

Reply |
1: 98 % of control; 2: 101 % of control

====

# Test system: L1210 leukemia ip in BDF1 mice, survival T/C
# run description: NCI In Vivo Anticancer Drug Screen. Data for tumor model L1210 Leukemia (intraperitoneal) in B6D2F1 (BDF1) mice
# condition set: endpoint: mean survival time; dose: 100.0 mg/kg/injection; schedule: Q04DX002 (ip); vehicle: saline with Tween-80; higher = longer survival
Toxic doses and inconclusive results are not listed.
Please go through the items and note down their T/C.

// solved cases for T/C follow
Ask | Data request, read-out T/C, for `O=[N+]([O-])c1ccc(-c2nnc(-c3ccccc3O)o2)cc1`
Reply | 89 % of control

Ask | Try `CCCCC/C(C)=C1\Oc2c(C)c(C)cc(C)c2C1=O` next.
Reply | 100 % of control

Ask | Try `CCCCOP(=O)(NC1CCCCC1)OCCCC` next.
Reply | 96 % of control

Ask | Try `CCCCCCCN(CCCCCCC)C(=O)N(CC)CC` next.
Reply | 93 % of control

Ask | Try `Cc1ccc(NC(=O)OCC(F)(F)C(F)(F)C(F)(F)F)c(NC(=O)OCC(F)(F)C(F)(F)C(F)(F)F)c1` next.
Reply | 98 % of control

Ask | Try `CCCCCCC(CCC)CCCCCC` next.
Reply | 98 % of control

Now let's try a different one.
Ask | Data request, read-out T/C, for CC12C(=O)C(C)(C(c3ccccc3)=C1c1ccccc1)C1C=CN(S(C)(=O)=O)C=CC12 (configuration not stated)
Reply | 86 % of control
